B1: ZER1 (parent)
chain: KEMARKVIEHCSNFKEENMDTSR

variants of: B1; experiment: protein stability index of a GFP-peptide fusion (GPS, HEK-293T) (PSI 1-6); higher = more stable; conditions: c terminus: native;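 note: lentivirally expressed fusions sorted by FACS into six bins by GFP to DsRed ratio, PSI derived from sequencing read proportions per bin multiplied by bin number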
Everything with protein stability index lower than 4 is -1; everything else, including exactly 4, is 1.

Consider the following illustrative entries.
Prompt: Could you verify whether the entry "F14R" shows protein stability index of no less than 4?
Completion: 1

Prompt: Test whether the variant "R5V" records protein stability index of 4 or higher.
Completion: -1

Prompt: API: above_or_equal(metric=protein stability index, cutoff=4) for item "K1T"
Completion: -1

Prompt: Hi team, for "K15E" , is the recorded protein stability index at or above 4?
Completion: 1

Prompt: Tell me whether protein stability index is at least 4 here: "S12A"
Completion: -1

Others:
Prompt: Decide: protein stability index of "N18E" >= 4?
Completion: 1
